- TEST_SUMMARY: qHTS for Inhibitors of ATXN expression: Validation of Cytotoxic Assay (AID 588349);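 also: cells exposed to compound for 72 hr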
- DETAILS: cytotoxicity counter-screen for ATXN expression inhibitors, cell viability; series mostly up to 57.1 µM
Inconclusive results are not listed. Calls of active or inactive are those of the source. Calls follow the shape of the dose curve; as a rule, active = well fitted cell-killing curve with a large enough effect; inconclusive = small, poorly fitted or top-dose-only effect, or effect the other way; inactive = flat fitted curve, though single readings scatter.
Response enum: active, inactive

Examples with answers:
COc1ccc(Cc2nccc3cc(OC)c(OC)cc23)cc1OC; inactive
O=C(O)CCc1nc(-c2ccccc2)c(-c2ccccc2)o1; inactive
CCCCCN(C)CCC(O)(P(=O)(O)O)P(=O)(O)O; inactive
CC(=O)CCCCn1c(=O)c2c(ncn2C)n(C)c1=O; inactive

Would you mind telling me which call this test gave CCCCC1C(=O)N(c2ccccc2)N(c2ccccc2)C1=O ?
inactive

Would you mind telling me which call this test gave O=c1c(-c2ccc(O)cc2)coc2cc(O)ccc12 ?
inactive

Would you mind telling me which call this test gave CC(=O)c1ccc(S(=O)(=O)NC(=O)NC2CCCCC2)cc1 ?
inactive

Would you mind telling me which call this test gave CC/C(=C(\c1ccccc1)c1ccc(OCCN(C)C)cc1)c1ccccc1 ?
active

Would you mind telling me which call this test gave NC(N)=Nc1nc(CSCC/C(N)=N/S(N)(=O)=O)cs1 ?
inactive

Would you mind telling me which call this test gave O=C(NCCN1CCOCC1)c1ccc(Cl)cc1 ?
inactive

Would you mind telling me which call this test gave COc1cccc(-c2cc(=O)c3ccccc3o2)c1N ?
inactive

Would you mind telling me which call this test gave CCN1CCC[C@H]1CNC(=O)c1cc(S(N)(=O)=O)ccc1OC ?
inactive

----------
- TEST_SUMMARY: Quantitative High-Throughput drug screen in 47 multiple myeloma cell lines against the NCATS MIPE library collection: JIM3_ECACC cell viability assay (AID 1918963; also: nearly all actives have a fitted effect of over 35% in size)
- DETAILS: JIM3 myeloma viability, CellTiter-Glo ATP, 48 h; series mostly up to 45.8 µM
Results filed as inconclusive are left out. The source made the active and inactive calls. Calls follow the shape of the dose curve; as a rule, active = well fitted cell-killing curve with a large enough effect; inconclusive = small, poorly fitted or top-dose-only effect; inactive = no such curve, though single readings can be large or run the other way.
Response enum: active, inactive

Examples with answers:
c1ccc2c(Cc3c[nH]c4ccccc34)c[nH]c2c1; active
O=c1ccn([C@@H]2O[C@H](CO)[C@H](O)[C@H]2O)c(=O)[nH]1; inactive
O=c1c(-c2ccc(O)cc2)coc2cc(O)ccc12; inactive
O=C(Nc1cc(Cl)cc2c1[nH]c1cnccc12)c1cccnc1; inactive
Cc1ccccc1C(C(=O)NC1CCCCC1)N(C(=O)Cn1ccnc1C)c1cccc(F)c1 (stereo unspecified); inactive

Field: next molecule
Would you mind telling me which call this test gave CC(C)(C)c1cc(C(=O)O)c(NC(=O)Nc2ccc3[nH]ncc3c2)s1 ?
inactive

----------
- TEST_SUMMARY: qHTS profiling for inhibitors of Plasmodium falciparum (HB3) proliferation (AID 743324);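 also: 100% = DMSO vehicle wells and 0% = artemisinin-treated control wells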
- DETAILS: Plasmodium falciparum HB3 blood-stage proliferation; at 28.7 µM (top of the series)
EXPERIMENTAL_ENDPOINT: remaining proliferation (% of control), lower = more inhibition (%)
Answers are plain numbers, in %.

Below: 5 compounds and their reported remaining proliferation (% of control), lower = more inhibition.
CO[C@H]1C[C@@H]2CC[C@@H](C)[C@@](O)(O2)C(=O)C(=O)N2CCCC[C@@H]2C(=O)O[C@H]([C@H](C)C[C@@H]2CC[C@H](OCCO)[C@H](OC)C2)CC(=O)[C@H](C)C=C(C)[C@@H](O)[C@@H](OC)C(=O)[C@H](C)C[C@H](C)C=CC=CC=C1C; -1.24
CC(C)C(=O)Nc1ncc(-c2cc(C(F)F)nn2-c2c(Cl)cccc2Cl)s1; -0.0078
CC[C@H]1OC(=O)[C@H](C)[C@@H](O[C@H]2C[C@@](C)(OC)[C@@H](O)[C@H](C)O2)[C@H](C)[C@@H](O[C@@H]2O[C@H](C)C[C@H](N(C)C)[C@@H]2O)[C@](C)(O)C[C@@H](C)CN(C)[C@H](C)[C@@H](O)[C@]1(C)O; 31.5
COc1ccc(C2CC(c3ccccc3)=NN2c2ccc(S(N)(=O)=O)cc2)cc1 (stereo unspecified); 19.1
COc1cc2nc(-c3ccc(N4CCN(C)CC4)cc3)nc(NCCN3CCOCC3)c2cc1OC; -0.898

Please turn your attention to the following entry.
Read off the recorded remaining proliferation (% of control), lower = more inhibition for CC(=O)Nc1ccc([C@H](C)C(=O)Nc2ncc(C(C)C)s2)cc1
93.4

----------
- TEST_SUMMARY: Quantitative High-Throughput drug screen in 47 multiple myeloma cell lines against the NCATS MIPE library collection: KMS26_JCRB cell viability assay (AID 1918975); also: nearly all actives have a fitted effect of over 45% in size
- DETAILS: KMS26 myeloma cells viability, CellTiter-Glo ATP, 48 h; series mostly up to 45.8 µM
Records with an inconclusive call do not appear. Calls of active or inactive are those of the source. Calls follow the shape of the dose curve; as a rule, active = well fitted cell-killing curve with a large enough effect; inconclusive = small, poorly fitted or top-dose-only effect, or effect the other way; inactive = no such curve, though single readings can be large or run the other way.
Response enum: active, inactive

Examples with answers:
CCc1ccc(OCc2ccccc2C(=O)Nc2ccc3nc(C)cc(N)c3c2)cc1; active
NC(=O)[C@@H](CCC(F)(F)F)N(Cc1ccc(-c2ncon2)cc1F)S(=O)(=O)c1ccc(Cl)cc1; inactive
COc1cc2ncnc(-n3nc(-c4ccccn4)nc3N)c2cc1OC; active
CC(C)n1nc(-c2ccc3oc(N)nc3c2)c2c(N)ncnc21; active

Would you mind telling me which call this test gave CC(C)C(=O)Nc1ncc(-c2cc(C(F)F)nn2-c2c(Cl)cccc2Cl)s1 ?
active

Would you mind telling me which call this test gave Clc1ccc(-c2nc3sccn3c2C=NOCc2ccc(Cl)c(Cl)c2)cc1 ?
inactive

Would you mind telling me which call this test gave COc1ncc(-c2ccc3nccc(-c4ccnnc4)c3c2)cc1NS(=O)(=O)c1ccc(F)cc1F ?
active

Would you mind telling me which call this test gave CC(C)(C)c1cc(C(=O)O)c(NC(=O)Nc2ccc3[nH]ncc3c2)s1 ?
inactive

Would you mind telling me which call this test gave COc1ccc(-c2nc(N3CCOCC3)c3sc(CN(C)c4ncc(C(=O)NO)cn4)cc3n2)cn1 ?
active

Would you mind telling me which call this test gave COc1cc2ncnc(Nc3ccc(F)c(Cl)c3)c2cc1OCCCN1CCOCC1 ?
active

----------
- System: HaCat
- TEST_SUMMARY: Cytotoxic Profiling of Annotated Libraries Using Quantitative High-Throughput Screening (AID 1296008); also: % is scaled to controls: 0 for no effect and ±100 for the full control effect; nearly all actives have a fitted effect of over 60% in size
- DETAILS: Five cell lines viability, CellTiter-Glo ATP luminescence, 48-72 h; stronger effect = lower value
Results filed as inconclusive are left out.
Exercise: for every item that follows, state its recorded max response.
Numbers only, in %.

Below: 3 compounds and their reported max response.
COC1CCC(N(C(=O)C2CCC(C)CC2)c2cc(C3=CCCCC3)sc2C(=O)O)CC1 (stereo not given); -16
Cc1nnc(C(C)C)n1C1C[C@H]2CC[C@@H](C1)N2CC[C@H](NC(=O)C1CCC(F)(F)CC1)c1ccccc1 (stereo not given in full); 3.6
NC1=N[C@@]2(c3cc(NC(=O)c4ccc(F)cn4)ccc3F)COC[C@@H]2CS1; -6.87

I would be grateful if you could provide max response for each of the following entries.
1. CC=CC[C@@H](C)C(=O)[C@H]1C(=O)N[C@@H](C(C)C)C(=O)N(C)CC(=O)N(C)[C@@H](CC(C)C)C(=O)N[C@@H](C(C)C)C(=O)N(C)[C@@H](CC(C)C)C(=O)N[C@@H](C)C(=O)N[C@H](C)C(=O)N(C)[C@@H](CC(C)C)C(=O)N(C)[C@@H](CC(C)C)C(=O)N(C)[C@@H](C(C)C)C(=O)N1C
2. COCCOC(=O)C1=C(C)NC2=C(C(=O)CC(c3ccccc3OC)C2)C1c1cccc(O)c1 (stereo not given)
3. CC(C)C(=O)Nc1ncc(-c2cc(C(F)F)nn2-c2c(Cl)cccc2Cl)s1
4. COc1ccc2cccc(CCNC(C)=O)c2c1

-21.7
-1.34
-19.8
-1.39

I would be grateful if you could provide max response for each of the following entries.
1. O=C(OCC#CCSc1nnc(-c2cccc3ccccc23)o1)c1cc2ccccc2s1
2. O=C(O)c1cc(-c2ccccc2)nc2ccccc12
3. O=c1c(-c2ccc(O)cc2)coc2cc(OC3O[C@H](CO)[C@H](O)[C@H](O)[C@H]3O)cc(O)c12 (stereo not given in full)
4. COc1cccc2c1CCCC2CCCN1CCN(C2CCCCC2)CC1 (stereo not given)
5. COC[C@@H](c1ccc(C(F)(F)F)cc1)N1CCN(C2(C)CCN(C(=O)c3c(C)ncnc3C)CC2)C[C@H]1C

1: -10.9; 2: -15.6; 3: -51.1; 4: -16.8; 5: -0.948

I would be grateful if you could provide max response for each of the following entries.
1. O=C(O)[C@H]1O[C@H](Oc2cc3oc(-c4ccccc4)cc(=O)c3c(O)c2O)[C@H](O)[C@@H](O)[C@H]1O
2. CC(C)(C)OC(=O)N[C@H]1CCCCCC=C[C@@H]2C[C@@]2(C(=O)NS(=O)(=O)C2CC2)NC(=O)[C@@H]2C[C@@H](OC(=O)N3Cc4cccc(F)c4C3)CN2C1=O
3. CCCNC(=O)NS(=O)(=O)c1ccc(Cl)cc1
4. O=C(O)C(O)Cc1ccc(O)c(O)c1 (stereo not given)
5. CCC(=O)O[C@]1(C(=O)CO)CC[C@H]2[C@@H]3CCC4=CC(=O)CC[C@]4(C)[C@@H]3CC[C@@]21C

[-7.89, -10.7, -1.01, -1.88, -31]

I would be grateful if you could provide max response for each of the following entries.
1. CC(C)(C)c1cc(C(=O)O)c(NC(=O)Nc2ccc3[nH]ncc3c2)s1
2. CC1(C)O[C@H]2C[C@@H]3[C@H]4CCC5=CC(=O)C=C[C@]5(C)[C@@]4(F)[C@@H](O)C[C@]3(C)[C@]2(C(=O)CO)O1
3. Nc1ncnc2ccccc12
4. O=c1c(-c2ccc(O)cc2)coc2cc(O[C@@H]3O[C@H](CO)[C@H](O)[C@H](O)[C@H]3O)ccc12
5. CCOC(=O)C1=C(N)Oc2ccc(Br)cc2C1C(C#N)C(=O)OCC (stereo not given)
6. NC(=O)c1cnc(-c2ccc(C3(N)CCC3)cc2)c(-c2ccccc2)c1

1: -3.43; 2: -12.9; 3: -14.1; 4: -4.86; 5: -16.4; 6: -22.7

Each recorded value in this set is attributed to PubChem BioAssay (NCATS).
